target: human TRPV4 (hTRPV4/CHO cells) (Homo sapiens); construct: expressed in transfected cells; host or cells: CHO-K1; assay: Test Example 1: TRPV4 inhibitory activity (IC50 value), 4α-PDD stimulation, Fluo4 calcium fluorescence (FLIPR TETRA); assay type: cell-based; details: Test Example 1, 4α-PDD stimulation, read-out: Test 1 IC50
Record form. Attribute: IC50. Fill in for each entry.

Fill blank: measured IC50 of the compound Cc1nc(C(=O)N(C)C)sc1-c1csc(NC(=O)Cc2c(F)cccc2F)n1 is ____.
1 to 8 µM

What do we get for Cc1nc(CO)sc1-c1csc(NC(=O)[C@H]2C[C@@H](OCC(F)(F)F)C2)n1 ?
0.1 to 1 µM

What do we get for O=C(Nc1nc(-c2sc(CO)nc2CO)cs1)[C@H]1C[C@@H](NCc2ccc(C(F)(F)F)cc2)C1 ?
1 to 8 µM

What do we get for Cc1nc(C)c(-c2csc(C(=O)NCc3cccc(F)c3)n2)s1 ?
1 to 8 µM

What do we get for Cc1nc(C(=O)NS(C)(=O)=O)sc1-c1csc(NC(=O)Cc2c(F)cccc2F)n1 ?
1 to 8 µM

What do we get for Cc1nc(C)c(-c2csc(NC(=O)[C@@H]3C[C@@H](Oc4ccccc4)CN3C(=O)C(F)(F)F)n2)s1 ?
< 0.1 µM

What do we get for Cc1nc(C)c(-c2csc(NC(=O)[C@H]3C[C@H](c4ccccc4)CN3)n2)s1 ?
1 to 8 µM

What do we get for Cc1nc(C)c(-c2nc(NC(=O)Cc3c(F)cccc3F)sc2C2=CCCCC2)s1 ?
1 to 8 µM

What do we get for Cc1nc(C)c(-c2csc(NC(=O)Cc3ccc(S(=O)(=O)C(F)(F)F)cc3)n2)[nH]1 ?
1 to 8 µM

What do we get for Cc1nc(C)c(-c2csc(NC(=O)Cn3cc(C4CC4)nn3)n2)s1 ?
0.1 to 1 µM

What do we get for Cc1nc(C(=O)NCCN(C)C)sc1-c1csc(NC(=O)Cc2c(F)cccc2F)n1 ?
1 to 8 µM

What do we get for Cc1nc(C(F)F)sc1-c1csc(NC(=O)C2CCC(C(F)(F)F)CC2)n1 (stereo not shown) ?
0.1 to 1 µM

What do we get for Cc1nc(CF)sc1-c1csc(NC(=O)Cc2ccc(S(=O)(=O)C(F)(F)F)cc2)n1 ?
< 0.1 µM

What do we get for Cc1nc(CO)sc1-c1csc(NC(=O)Cn2cc(Cl)cn2)n1 ?
0.1 to 1 µM

What do we get for Cc1nc(C)c(-c2csc(NC(=O)Cn3cc(-c4cccc(N(C)C)c4)cn3)n2)s1 ?
< 0.1 µM

What do we get for Cc1nc(C)c(-c2csc(NC(=O)Cn3cc(-c4ccccc4Cl)cn3)n2)s1 ?
< 0.1 µM

====

target: human TRPV4 (hTRPV4/CHO cells) (Homo sapiens, UniProt Q9HBA0); construct: expressed in transfected cells; host or cells: CHO-K1; assay: Test Example 1: TRPV4 inhibitory activity (IC50 value), 4α-PDD stimulation, Fluo4 calcium fluorescence (FLIPR TETRA); assay type: cell-based; settings: Test Example 1, 4α-PDD stimulation, read-out: Test 1 IC50
Sequence (Q9HBA0 whole entry): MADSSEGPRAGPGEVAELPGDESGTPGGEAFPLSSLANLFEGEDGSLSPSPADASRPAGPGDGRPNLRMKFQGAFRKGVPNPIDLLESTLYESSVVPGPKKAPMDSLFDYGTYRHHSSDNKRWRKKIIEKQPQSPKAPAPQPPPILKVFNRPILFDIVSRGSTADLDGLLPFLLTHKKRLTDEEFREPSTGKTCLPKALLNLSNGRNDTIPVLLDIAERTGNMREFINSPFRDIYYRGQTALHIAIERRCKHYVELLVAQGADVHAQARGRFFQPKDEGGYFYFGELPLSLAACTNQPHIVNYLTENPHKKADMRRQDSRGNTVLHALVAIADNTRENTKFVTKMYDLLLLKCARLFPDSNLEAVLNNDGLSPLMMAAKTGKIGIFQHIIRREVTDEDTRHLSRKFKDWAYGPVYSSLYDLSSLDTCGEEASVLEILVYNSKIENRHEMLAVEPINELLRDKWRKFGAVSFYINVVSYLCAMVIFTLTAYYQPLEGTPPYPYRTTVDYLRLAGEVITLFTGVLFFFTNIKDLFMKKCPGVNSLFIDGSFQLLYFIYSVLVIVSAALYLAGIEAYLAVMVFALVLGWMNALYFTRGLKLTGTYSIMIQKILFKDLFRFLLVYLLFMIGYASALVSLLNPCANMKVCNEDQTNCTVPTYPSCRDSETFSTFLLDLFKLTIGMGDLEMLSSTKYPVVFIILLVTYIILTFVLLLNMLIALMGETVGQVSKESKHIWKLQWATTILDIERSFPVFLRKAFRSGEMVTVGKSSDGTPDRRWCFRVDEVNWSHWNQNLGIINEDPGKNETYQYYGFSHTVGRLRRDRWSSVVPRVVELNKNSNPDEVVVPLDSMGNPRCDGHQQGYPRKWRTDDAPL
pIC50: −log10 of the molar value.
Record form. Attribute: pIC50. Fill in for each entry.

Fill blank: measured pIC50 of the compound Cc1nc(CO)sc1-c1csc(NC(=O)/C=C/c2ccccc2)n1 [Compound I-462] is ____.
6.00 to 7.00

What do we get for Cc1nc(C)c(-c2csc(NC(=O)[C@@H]3CCN(c4ncc(C(F)(F)F)cn4)C3)n2)s1 [Compound I-394] ?
> 7.00

What do we get for Cc1nc(CC#N)sc1-c1csc(NC(=O)Cc2ccc(S(=O)(=O)C(F)(F)F)cc2)n1 [Compound I-392] ?
> 7.00

What do we get for CC(=O)c1nc(C)c(-c2csc(NC(=O)Cc3c(F)cccc3F)n2)s1 [Compound I-98] ?
6.00 to 7.00

What do we get for CCN(CC)Cc1nc(CO)sc1-c1csc(NC(=O)Cc2ccc(S(=O)(=O)C(F)(F)F)cc2)n1 [Compound I-236] ?
6.00 to 7.00

What do we get for O=C(Nc1nc(-c2sc(CO)nc2CO)cs1)C1CN(c2ccccc2Cl)C1 [Compound I-342] ?
6.00 to 7.00

What do we get for Cc1nc(C)c(-c2csc(NC(=O)c3cccc(-c4ccccc4)n3)n2)s1 [Compound I-296] ?
5.10 to 6.00

What do we get for Cc1nc(CO)sc1-c1csc(NC(=O)C2CC(=O)C2)n1 [Compound I-267] ?
5.10 to 6.00

What do we get for Cc1nc(C)c(-c2csc(Nc3ccncc3)n2)s1 [II-41] ?
5.10 to 6.00

What do we get for CCS(=O)(=O)c1ccc(CC(=O)Nc2nc(-c3sc(C)nc3C)cs2)cc1 [Compound I-80] ?
6.00 to 7.00

What do we get for Cc1nc(C)c(-c2csc(NC(=O)N(C)c3ccc(Br)cc3)n2)s1 [Compound I-59] ?
6.00 to 7.00

What do we get for Cc1nc(C(F)F)sc1-c1csc(NC(=O)C2CC(OCc3ccccc3)C2)n1 (centres unmarked) [Compound I-111] ?
5.10 to 6.00

What do we get for Cc1nc(C)c(-c2csc(NC(=O)C3Cc4ccccc4O3)n2)s1 (centres unmarked) [Compound I-180] ?
> 7.00

What do we get for COc1ccc(CN2CC(C(=O)Nc3nc(-c4sc(C)nc4C)cs3)C2)cn1 [Compound I-283] ?
5.10 to 6.00

What do we get for NC(=O)c1nc(CO)c(-c2csc(NC(=O)C3CN(Cc4ccccc4C(F)(F)F)C3)n2)s1 [Compound I-322] ?
6.00 to 7.00

What do we get for Cc1nc(CO)sc1-c1csc(NC(=O)Cc2ccc(S(=O)(=O)C(F)(F)F)cc2)n1 [Compound I-142] ?
> 7.00

What do we get for Cc1nc(C)c(-c2csc(NC(=O)[C@H]3C[C@@H](N(C)Cc4ccc(C(F)(F)F)cc4)C3)n2)s1 [Compound I-367] ?
> 7.00

The measured values listed here are drawn from patent US20170066759A1.
